Biological target: recombinant homotrimeric HA A/Netherlands/219/03 H7N7 (Influenza A virus A/Netherlands/219/03(H7N7))
Assay: protein microarray, purified IgG, trimeric HA
Conditions: remark: other sources report otherwise
With a cut-off of 700 RLU, any Trimeric HA Binding: RLU strictly below it is called True; any Trimeric HA Binding: RLU meeting it or above is called False.

binder	qualitative_label
TCN-531 (5091_H13) (antibody, V domains shown) VH: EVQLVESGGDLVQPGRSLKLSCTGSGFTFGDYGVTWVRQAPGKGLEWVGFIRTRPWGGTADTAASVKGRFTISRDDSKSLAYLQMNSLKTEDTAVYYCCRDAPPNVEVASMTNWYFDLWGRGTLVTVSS VL: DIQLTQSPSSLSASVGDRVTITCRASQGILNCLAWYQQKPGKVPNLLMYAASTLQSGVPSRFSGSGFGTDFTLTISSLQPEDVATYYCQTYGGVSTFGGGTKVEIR	True

A record lists TCN-540 (5060_F05) (antibody, V domains shown) VH: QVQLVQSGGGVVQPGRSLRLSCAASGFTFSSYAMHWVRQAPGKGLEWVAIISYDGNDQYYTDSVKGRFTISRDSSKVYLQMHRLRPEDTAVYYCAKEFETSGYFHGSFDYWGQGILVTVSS VL: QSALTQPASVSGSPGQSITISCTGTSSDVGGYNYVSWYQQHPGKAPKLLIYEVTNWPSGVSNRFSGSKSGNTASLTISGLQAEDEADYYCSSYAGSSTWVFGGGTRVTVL . Is its Trimeric HA Binding: RLU below 700 RLU?
True

A record lists TCN-530 (5248_H10a) (antibody, V domains shown) VH: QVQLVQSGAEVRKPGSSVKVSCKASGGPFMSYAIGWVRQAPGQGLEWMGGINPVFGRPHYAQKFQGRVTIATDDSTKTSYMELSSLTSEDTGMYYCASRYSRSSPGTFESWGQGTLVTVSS VL: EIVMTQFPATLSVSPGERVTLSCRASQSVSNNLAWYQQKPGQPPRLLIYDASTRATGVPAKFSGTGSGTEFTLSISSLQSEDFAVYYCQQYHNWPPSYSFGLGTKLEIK . Is its Trimeric HA Binding: RLU below 700 RLU?
True

A record lists TCN-529 (5297_H01) (antibody, V domains shown) VH: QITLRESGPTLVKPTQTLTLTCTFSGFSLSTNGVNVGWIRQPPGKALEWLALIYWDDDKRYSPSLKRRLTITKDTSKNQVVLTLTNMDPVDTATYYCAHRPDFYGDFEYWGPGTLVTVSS VL: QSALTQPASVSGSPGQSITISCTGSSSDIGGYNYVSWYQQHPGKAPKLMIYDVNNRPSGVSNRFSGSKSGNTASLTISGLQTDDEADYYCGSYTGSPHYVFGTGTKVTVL . Is its Trimeric HA Binding: RLU below 700 RLU?
False

A record lists TCN-527 (5086_C06) (antibody, V domains shown) VH: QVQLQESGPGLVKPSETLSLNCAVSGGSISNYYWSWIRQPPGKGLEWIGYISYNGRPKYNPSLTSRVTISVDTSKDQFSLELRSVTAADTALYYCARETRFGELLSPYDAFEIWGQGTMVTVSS VL: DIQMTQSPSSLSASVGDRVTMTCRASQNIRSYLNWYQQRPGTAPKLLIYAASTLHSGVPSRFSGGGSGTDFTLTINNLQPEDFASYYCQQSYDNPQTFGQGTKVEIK . Is its Trimeric HA Binding: RLU below 700 RLU?
False

A record lists TCN-553 (5261_C18) (antibody, V domains shown) VH: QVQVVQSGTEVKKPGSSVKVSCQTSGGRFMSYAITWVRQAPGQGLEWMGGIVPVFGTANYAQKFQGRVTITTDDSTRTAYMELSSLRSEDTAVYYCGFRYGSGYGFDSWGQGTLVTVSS VL: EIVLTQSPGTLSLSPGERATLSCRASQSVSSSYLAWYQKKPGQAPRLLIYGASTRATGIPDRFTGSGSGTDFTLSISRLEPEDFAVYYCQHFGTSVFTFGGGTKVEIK . Is its Trimeric HA Binding: RLU below 700 RLU?
True

A record lists TCN-551 (5243_D01) (antibody, V domains shown) VH: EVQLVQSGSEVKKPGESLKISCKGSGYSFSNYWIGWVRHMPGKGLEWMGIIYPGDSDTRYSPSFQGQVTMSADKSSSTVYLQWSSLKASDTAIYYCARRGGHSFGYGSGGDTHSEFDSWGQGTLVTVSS VL: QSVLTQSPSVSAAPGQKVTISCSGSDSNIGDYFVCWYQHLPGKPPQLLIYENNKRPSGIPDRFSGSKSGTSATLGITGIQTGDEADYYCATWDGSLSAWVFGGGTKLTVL . Is its Trimeric HA Binding: RLU below 700 RLU?
False

A record lists TCN-554 (5277_M05) (antibody, V domains shown) VH: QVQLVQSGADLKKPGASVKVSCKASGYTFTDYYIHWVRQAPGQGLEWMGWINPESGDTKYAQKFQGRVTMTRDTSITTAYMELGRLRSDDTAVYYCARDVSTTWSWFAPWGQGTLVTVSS VL: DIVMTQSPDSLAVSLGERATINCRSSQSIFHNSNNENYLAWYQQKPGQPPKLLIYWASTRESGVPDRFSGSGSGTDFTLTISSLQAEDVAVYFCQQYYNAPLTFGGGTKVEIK . Is its Trimeric HA Binding: RLU below 700 RLU?
True

A record lists TCN-528 (5087_P17) (antibody, V domains shown) VH: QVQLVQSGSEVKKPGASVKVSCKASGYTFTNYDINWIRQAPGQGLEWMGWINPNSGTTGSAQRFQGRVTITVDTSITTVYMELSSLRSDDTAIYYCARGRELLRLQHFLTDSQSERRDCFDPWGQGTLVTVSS VL: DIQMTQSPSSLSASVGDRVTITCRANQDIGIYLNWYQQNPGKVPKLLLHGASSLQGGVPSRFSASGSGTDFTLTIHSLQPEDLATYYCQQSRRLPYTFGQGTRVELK . Is its Trimeric HA Binding: RLU below 700 RLU?
False

A record lists TCN-537 (3194_D21) (antibody, V domains shown) VH: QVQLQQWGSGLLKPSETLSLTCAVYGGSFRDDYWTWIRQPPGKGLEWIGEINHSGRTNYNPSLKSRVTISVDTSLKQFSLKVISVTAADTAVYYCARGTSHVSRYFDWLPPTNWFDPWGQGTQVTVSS VL: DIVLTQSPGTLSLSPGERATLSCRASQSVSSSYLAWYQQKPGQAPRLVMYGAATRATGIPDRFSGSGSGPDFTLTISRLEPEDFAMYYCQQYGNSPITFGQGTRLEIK . Is its Trimeric HA Binding: RLU below 700 RLU?
False

Attribution: patent US20150086555A1
